test system: MS2 coat protein; assay: apparent KD of MS2 coat protein; higher = weaker reporter binding; details: Eterna round: R107; input ligand: theophylline 20 uM
apparent KD of MS2 coat protein values, listed per item
A number alone suffices; assume nM.

Known apparent KD of MS2 coat protein results, listed for orientation:
macromolecule_sequence="AGGAAGACGAUGGAUACCAGACAACCAGGGAACAUGAGGAUCACCCAUGUGAUUGAAAGGGUCCCUUGGCAGCCAGAAGCCGUUG [theeternabot_sameState_MS2_Theo_B_31]" unit_info=nM numeric_readout=173
macromolecule_sequence="GUAAUUUAUUGAAGGAGCGUCGAAAAUGGGUAAACAUGAGGAUCACCCAUGUAAAGGGAACGACAGGUAGGUCGCAAUAGGUUAC [AstromonsSSArgB#29]" unit_info=nM numeric_readout=252
macromolecule_sequence="UCACAUGAGGAUCACCCAUGUACAGGCGAUACCAGCCGUACAUUGGGCCCUUGGCAGCGCAUCGAGACCUUUAUAAGCACCUCGG [Ceusbi]" unit_info=nM numeric_readout=127
macromolecule_sequence="UACAGCAGUACGGCCGCCACUCUAAGAUUGCGCGUUUAGGCCAUACAUGAGGAUCACCCAUGUCCGAGGACCGGGUACAGGAAUU [theeternabot_sameState_MS2_Trp_B_29]" unit_info=nM numeric_readout=416
macromolecule_sequence="GCAAAGUGAUCGGCCGCCACUGCAAUGCUUAAUGGAGGUCCACAUGAGGAUCACCCAUGUCUUCCCAGGACCGGGAUCUCGAGUU [theeternabot_sameState_MS2_Trp_B_3]" unit_info=nM numeric_readout=65.5

query: For the sequence GGAUAGGACACGGCCGCCACUACCUAGGAUACUAGAAACAUUUCCUCACAUGAGGAUCACCCAUGUAGGACCGGGUGUCCUAUCG , give its reported apparent KD of MS2 coat protein.
result: 284

query: For the sequence ACAUGAGGAUCACCCAUGUGAAGCAGGGUACGAGGACCGGUACGGCCGCCACUCGAGCAUUAUACCGAGUGAAUGGCAACGAUGU [whbob_Ex_trypto A_2s17] , give its reported apparent KD of MS2 coat protein.
result: 19

query: For the sequence UCGUGAGUUUCGGAUACCAGUGUGGUCGAUACAUGAGGAUCACCCAUGUUAGAGGAGGUACACCCUUGGCAGCCGGCUGUGGCGG [hlhmullin] , give its reported apparent KD of MS2 coat protein.
result: 35.4

query: For the sequence ACAUGAGGAUCACCCAUGUAAAUAACGGAAGGAGCGUGCAAAAGCACAGGUAGGUCGCCGAUAUAAAUAUUGGGUAUUAUAUUUU [AstrosExyArgA#3] , give its reported apparent KD of MS2 coat protein.
result: 40.3

###

apparent KD of MS2 coat protein values, listed per item
test system: MS2 coat protein; experiment: apparent KD of MS2 coat protein; designed switch direction (-1 OFF switch, 1 ON switch): -1; higher = weaker reporter binding; conditions: input ligand: none
A number alone suffices; assume nM.

Known apparent KD of MS2 coat protein results, listed for orientation:
macromolecule_sequence="GAGUGUUGAGGAUAUACAUGAGGAUCACCCAUGUGCUUCAGCUAGGAGACUAGCAUUGGUAGAAGGCAGUACUC [Mod of lroppy 9 - Jieux - Exclusion 3] (Eterna round: R97, puzzle: Exclusion 3)" measured_attribute="apparent KD of MS2 coat protein" numeric_readout=37.1
macromolecule_sequence="AGUAAUUCAAGAGGAUAUCACAUGAGGAUCACCCAUGUAUAGCGCGCUACGCUAGUCCUCGUAUUUGAGAAGGUUUGAUAAAAG [Mat - Exclusion NG 2 - Mod of JL - D76] (Eterna round: R96, puzzle: Exclusion NG 2)" measured_attribute="apparent KD of MS2 coat protein" numeric_readout=17.5
macromolecule_sequence="ACAUGUUGUCCAUGAUAUUACAUGAGGAUCACCCAUGUUAUUGCGAUUUUGAUGUGUAAGUUUGUUGCUCGUCUUAU [JR_STOV1_Sub062] (Eterna round: R97, puzzle: Sensor, turn-off variant 1)" measured_attribute="apparent KD of MS2 coat protein" numeric_readout=32.6

query: For the sequence UACCUACAUGAGGAUCACCCAUGUCAGGAUAUCCGUGUGAACGAGUCGUUACACAGGCGGAGAAGGGACAUCGG [Eternabot (L1) Solution 65] (Eterna round: R97, puzzle: Exclusion 1) , give its reported apparent KD of MS2 coat protein.
result: 54.2
